target: RXRβ (Homo sapiens); assay: holoreceptor transactivation assay; conditions: holoreceptor assay
Sequence (P28702 whole entry): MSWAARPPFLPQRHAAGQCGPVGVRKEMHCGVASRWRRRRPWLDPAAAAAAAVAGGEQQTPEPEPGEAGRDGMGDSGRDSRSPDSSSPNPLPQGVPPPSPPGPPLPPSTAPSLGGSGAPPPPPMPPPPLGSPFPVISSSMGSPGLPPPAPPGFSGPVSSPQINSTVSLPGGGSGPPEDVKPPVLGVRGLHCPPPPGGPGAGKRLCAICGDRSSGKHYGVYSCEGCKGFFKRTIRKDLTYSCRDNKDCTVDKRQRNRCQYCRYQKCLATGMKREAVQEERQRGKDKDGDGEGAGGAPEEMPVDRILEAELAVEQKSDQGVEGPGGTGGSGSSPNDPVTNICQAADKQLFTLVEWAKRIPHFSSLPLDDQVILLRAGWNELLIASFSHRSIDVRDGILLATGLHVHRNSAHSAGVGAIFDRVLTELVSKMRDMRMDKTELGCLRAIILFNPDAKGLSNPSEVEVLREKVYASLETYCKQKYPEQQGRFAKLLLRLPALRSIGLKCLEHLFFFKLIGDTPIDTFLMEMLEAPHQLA
pEC50: −log10 of the molar value.
Measured parameter: pEC50

COCC1[C@@H](/C=C/C(C)=C/C(=O)O)C1(C)c1cc(C(C)C)cc(C(C)C)c1 (stereo in doubt) [Compound 31a] | 7.77
COCC1[C@@H](/C=C/C(C)=C/C(=O)O)C1(C)c1cc(C(C)C)cc(C(C)C)c1 (stereo in doubt) [Compound 29] | 7.33
COC[C@H]1[C@@H](/C=C/C(C)=C/C(=O)O)[C@@]1(C)c1ccc2c(c1)C(C)(C)CCC2(C)C (stereo in doubt) [Compound 21a] | 7.44
COC[C@@H]1[C@@H](/C=C/C(C)=C/C(=O)O)C1(C)c1ccc2c(c1)C(C)(C)CCC2(C)C (stereo in doubt) [Compound 23a] | 6.26
